Molecular target: T1, Sortilin SORTECDBAP_hB12390 (human/tetraodon chimera)
T1 construct: Shuffle construct: chimeric human/tetraodon Sortilin ECD with BAP tag
T1 chain: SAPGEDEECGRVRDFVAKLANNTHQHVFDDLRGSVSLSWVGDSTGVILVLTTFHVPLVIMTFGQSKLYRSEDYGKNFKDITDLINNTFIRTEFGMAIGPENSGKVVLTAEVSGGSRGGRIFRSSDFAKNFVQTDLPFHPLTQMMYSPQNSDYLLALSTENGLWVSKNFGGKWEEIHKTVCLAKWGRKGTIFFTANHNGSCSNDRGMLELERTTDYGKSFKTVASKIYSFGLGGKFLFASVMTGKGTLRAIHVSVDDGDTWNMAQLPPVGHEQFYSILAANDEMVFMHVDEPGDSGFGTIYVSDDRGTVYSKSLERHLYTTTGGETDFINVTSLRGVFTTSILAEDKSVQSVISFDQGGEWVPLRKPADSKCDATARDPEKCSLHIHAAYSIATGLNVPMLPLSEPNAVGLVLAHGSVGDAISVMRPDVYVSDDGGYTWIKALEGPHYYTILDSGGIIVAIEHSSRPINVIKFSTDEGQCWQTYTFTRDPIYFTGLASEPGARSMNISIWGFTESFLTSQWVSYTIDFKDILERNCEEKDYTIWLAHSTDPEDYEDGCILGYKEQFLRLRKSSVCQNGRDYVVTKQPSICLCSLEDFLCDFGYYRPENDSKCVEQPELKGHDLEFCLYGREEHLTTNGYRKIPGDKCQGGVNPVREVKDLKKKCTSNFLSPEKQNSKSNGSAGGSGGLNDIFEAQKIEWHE
Experiment: BLI (Octet384RED)
QUANTITY: EC50 (ng/mL)
The answer is to be given in ng/mL; state only the numeric part.

Consider the following illustrative entries.
[
  {
    "BINDER": "Antibody 6003-423 (antibody, human IgG1, V domains shown) VH: EVQLLESGGGLVQPGGSLRLSCEASGFTFRSYVMSWVRQAPGKGLEWVSTISGGGGNTNYTDSVKGRFTISRDNSKNTLYLQMNSLRAEDTAVYYCAKNWGSGFDYWGQGTLVTVSS VL: EIVLTQSPATLSLSPGERATLSCRASQSVSSYLAWYQQKPGQAPRLLIYDASNRATGIPARFSGSGSGTDFTLTISSLEPEDFAVYYCQQRSNWLIFTFGPGTKVDIK",
    "MEASUREMENT_UNIT": "ng/mL",
    "ENDPOINT_RESULT": 3.55
  },
  {
    "BINDER": "Antibody 6003-471 (antibody, V domains shown) VH: QVQLVQSGAEVKKPGSSVKVSCKASGGTFSNYAISWVRQAPGQGLEWMGRIIPIFGIANYAQKFQGRVTITADKSTSTAYMELSSLRSEDTAVYYCARDRRGFSGYEVFDYWGQGTLVTVSS VL: DIQMTQSPSSLSASVGDRVTITCRASQGISSWLAWYQQKPEKAPKSLIYATSSLQSGVPSRFSGSGSGTDFTLTISSLQPEDFATYYCQQYNSYPITFGQGTRLEIK",
    "MEASUREMENT_UNIT": "ng/mL",
    "ENDPOINT_RESULT": 3.16
  }
]

Note: attention shifts to another entry.
INPUT: For Antibody 6003-030 (antibody, human IgG1, V domains shown, Human antibody (HuMab); also called antibody 30; mAb30) VH: EVQVLESGGGLVQPGGSLRLSCAASGFTFSSYAMSWVRQAPGKGLEWVSTISGRGGNTYYADSVKGRFTISRDNSKNTLYLQMDSLRAEDTAVYYCAIIPSLYWYFDLWGRGTLVTVSS VL: EIVLTQSPATLSLSPGERATLSCRASQSVSSYLAWYQQKPGQAPRLLIYDASNRATGIPARFSGSGSGTDFTLTISSLEPEDFAVYYCQQRSNWPLTFGGGTKVEIK , write its EC50.
OUTPUT: 0.82

Numbers sourced from patent US20210292414A1.
